Test system: IL-34
Test: Reduction of IL-34 secretion in activated B cells (ELISA)
Assay type: cell-based
Conditions: 100 ng/me of peptide; EBV-infected B cells stimulated with anti-CD150; ELISA of culture supernatant
Description: In order to determine the activity of the novel peptides synthesized in Example 1 for reducing the secretion of inflammatory cytokines, the activated pathogenic B cells were treated with each of the 18 types of synthesized novel peptides and the reduction in secretion of inflammatory cytokines from the B cells was monitored. […]
observation_type: Inhibition rate of each cytokine compared to CD150-stimulated EBV-t B cells (%) IL-34

- DGRTDG (SIS-1#9 peptide): 15.0
- MSLPSP (SIS-1#1 peptide): 18.8
- RDGRTDG (SIS-1#2 peptide): 25.4
- RDGRTD (SIS-1#17 peptide): 20.8
- PSPRDG (SIS-1#5 peptide): 13.2
- RDGRTDGRTD (SIS-1#8 peptide): 19.8
- MSLPSPRDGRTDGRTDCTR (SIS-1 peptide): 43.4
- MSLPSPRDGRTDG (SIS-1#4 peptide): 16.8
- RTDCTR (SIS-1#3 peptide): 9.8
- PSPRDGRTDG (SIS-1#6 peptide): 31.0
